The measured values listed here are drawn from the supplement of paper PMC10567573.

B1: SASS6 (parent)
chain: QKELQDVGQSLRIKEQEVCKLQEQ

- Variants of: B1
- assay-overview: protein stability index of a GFP-peptide fusion (GPS, HEK-293T) (PSI 1-6); higher = more stable;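 also: lentivirally expressed fusions sorted by FACS into six bins by GFP to DsRed ratio, PSI derived from sequencing read proportions per bin multiplied by bin number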
- measurement-setup: c terminus: a fixed tail appended
Documented protein stability index across a set of variants
I only need the number, thanks.

- Q5H: 4.91

Consider the variant shown here: V7I What is its recorded protein stability index? 5.05

I am curious: what protein stability index value has been reported for Q22M ? 4.88

I would be grateful if you could share the reported protein stability index for D6G . 5
